Target: BTK (Homo sapiens, UniProt Q06187)
Construct: purchased Nanosyn, Santa Clara, Calif; host or cells: 293HEK
Sequence (Q06187 whole entry): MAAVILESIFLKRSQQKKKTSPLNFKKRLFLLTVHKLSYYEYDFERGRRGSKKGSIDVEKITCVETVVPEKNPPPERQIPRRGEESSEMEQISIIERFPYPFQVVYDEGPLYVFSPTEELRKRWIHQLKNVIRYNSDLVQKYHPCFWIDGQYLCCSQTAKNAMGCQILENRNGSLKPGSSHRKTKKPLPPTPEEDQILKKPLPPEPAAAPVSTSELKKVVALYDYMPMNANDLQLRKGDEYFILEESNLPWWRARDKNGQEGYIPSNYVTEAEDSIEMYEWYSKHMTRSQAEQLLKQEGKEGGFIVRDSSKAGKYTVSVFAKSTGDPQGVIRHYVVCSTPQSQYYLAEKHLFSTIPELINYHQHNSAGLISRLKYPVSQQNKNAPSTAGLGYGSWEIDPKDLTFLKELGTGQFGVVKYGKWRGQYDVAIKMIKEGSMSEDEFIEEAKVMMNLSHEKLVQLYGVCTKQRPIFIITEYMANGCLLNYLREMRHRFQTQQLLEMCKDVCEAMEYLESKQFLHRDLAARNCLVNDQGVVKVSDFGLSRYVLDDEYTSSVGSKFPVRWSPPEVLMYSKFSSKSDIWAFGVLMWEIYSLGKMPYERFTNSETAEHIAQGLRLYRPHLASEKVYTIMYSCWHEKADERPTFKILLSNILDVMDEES
Assay: BTK kinase electrophoretic mobility shift assay (MSA)
Type: biochemical
Details: 50 μM ATP, 0.5 nM BTK enzyme (Nanosyn-293HEK, WT), 3 hours at 25° C.; all examples except 50, 51, 62 and 63; read-out: BTK IC50
Assay Readout: IC50 (nM)

- Compound: "C=CC(=O)N1CCN([C@H]2CCNc3c2nn(-c2ccc(Oc4ccccc4OC(F)(F)F)cc2)c3C(N)=O)CC1 [Example 100]"
  Recorded Number: 46.3

A. CC#CC(=O)N1CCN(C2CCNc3c2nn(-c2ccc(Oc4ccccc4)cc2)c3C(N)=O)CC1 (stereo not drawn) [Example 27]
B. C=CC(=O)N1CCN([C@H]2CCNc3c2nn(-c2ccc(Oc4ccc(C)cc4)cc2)c3C(N)=O)CC1 [Example 96]
Between the entries labelled A and B , which has a larger IC50 value on record? API: response body contains the label of the selected item.
A

Hey, just so you know, these numbers are from patent US20220213092A1.
